experiment: in vivo; conditions: Kunming, mouse, po
Description: Therapeutic index, ratio of ED50 for induction of catalepsy to ED50 for antipsychotic activity in po dosed Kunming mouse assessed as reversal of apomorphine-induced cage climbing response
valueType: selectivity ratio

Cc1c(OCCCCN2CCC(c3noc4cc(F)ccc34)CC2)ccc2c3c(c(=O)oc12)CCC3
109
O=C(CCCN1CCC(O)(c2ccc(Cl)cc2)CC1)c1ccc(F)cc1
2.71

----------
# Lookup of reported ED50 keyed by entry
tested on: Mus musculus; experiment: Antipsychotic activity in po dosed Kunming mouse assessed as reversal of apomorphine-induced cage climbing response compound administered 30 mins prior to apomorphine challenge measured for 30 mins post challenge; type: functional
valueType: ED50 (mg/kg)

CN1CCN(C2=Nc3cc(Cl)ccc3Nc3ccccc32)CC1 [CLOZAPINE]
3.97
O=C(CCCN1CCC(O)(c2ccc(Cl)cc2)CC1)c1ccc(F)cc1 [HALOPERIDOL]
0.14
Cc1nc2n(c(=O)c1CCN1CCC(c3noc4cc(F)ccc34)CC1)CCCC2 [RISPERIDONE]
0.02
Cc1c(OCCCCN2CCC(c3noc4cc(F)ccc34)CC2)ccc2c3c(c(=O)oc12)CCC3
0.61

Data provenance: ChEMBL document CHEMBL3120114
